Consider the following binders; for each one, report its 钙流 IC50 (细胞外钙离子浓度1.2mM).
Target: T1, CaSR (细胞内钙流实验中的受体) (human, UniProt P41180 20-1078)
T1 sequence (looked up): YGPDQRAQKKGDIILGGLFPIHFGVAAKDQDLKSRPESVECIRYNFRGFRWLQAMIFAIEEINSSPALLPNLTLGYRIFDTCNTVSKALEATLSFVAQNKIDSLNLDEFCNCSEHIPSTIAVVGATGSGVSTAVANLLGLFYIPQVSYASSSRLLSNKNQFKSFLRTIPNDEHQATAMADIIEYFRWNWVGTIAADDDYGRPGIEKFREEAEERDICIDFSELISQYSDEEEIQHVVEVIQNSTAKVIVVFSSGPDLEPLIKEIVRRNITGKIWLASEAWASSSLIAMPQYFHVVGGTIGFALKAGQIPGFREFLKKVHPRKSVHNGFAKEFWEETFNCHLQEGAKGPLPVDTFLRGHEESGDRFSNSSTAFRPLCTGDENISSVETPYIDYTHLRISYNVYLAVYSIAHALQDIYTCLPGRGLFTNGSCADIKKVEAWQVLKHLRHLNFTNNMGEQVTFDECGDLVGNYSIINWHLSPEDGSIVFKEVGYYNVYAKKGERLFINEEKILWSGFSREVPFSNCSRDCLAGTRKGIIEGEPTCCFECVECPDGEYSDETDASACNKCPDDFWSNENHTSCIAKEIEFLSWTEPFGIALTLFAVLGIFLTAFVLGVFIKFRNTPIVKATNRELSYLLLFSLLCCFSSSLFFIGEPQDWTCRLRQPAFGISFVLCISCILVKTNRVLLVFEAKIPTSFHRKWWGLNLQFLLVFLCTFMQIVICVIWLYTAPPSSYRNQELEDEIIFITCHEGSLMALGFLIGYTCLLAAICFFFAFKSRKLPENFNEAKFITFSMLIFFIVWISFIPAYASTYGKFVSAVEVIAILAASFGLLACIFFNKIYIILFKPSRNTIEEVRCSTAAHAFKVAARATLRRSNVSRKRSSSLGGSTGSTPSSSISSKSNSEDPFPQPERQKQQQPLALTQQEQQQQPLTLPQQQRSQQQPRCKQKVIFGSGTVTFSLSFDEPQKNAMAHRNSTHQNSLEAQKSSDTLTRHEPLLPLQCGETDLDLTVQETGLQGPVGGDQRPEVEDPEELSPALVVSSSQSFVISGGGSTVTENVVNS
Assay: cell-based or functional assay
Unit nM implied. Number only.

Prompt: Complete the entry with 钙流 IC50 (细胞外钙离子浓度1.2mM) for 纳米抗体1C12 (VHH, Camel VHH expressed in E. coli and purified on a nickel column; also called 抗体株1C12) VHH: QVQLQESGGGSVQAGGSLRLSCTASRYTYNSPLYMAWFRQAPGKEREGVAHIDSDGSITYTDSVKGRFTISRDNAKTTLYLQMNNLNPEDTAMYYCAADPLHRWSHRLEAIGYRYWGQGTQVTVSS
Response: 107

Prompt: Complete the entry with 钙流 IC50 (细胞外钙离子浓度1.2mM) for 纳米抗体NB88 (VHH, Camel VHH expressed in E. coli and purified on a nickel column; It was detected through an HA tag; also called 抗体株NB88) VHH: QVQLQESGGGSVQAGESLRLSCAASRYGYSRNWMGWFRQPPGKEREGVAVIYTGGSKTAYADAVKGRFIISLDNANNTVYLQMNSLKPEDTAMYYCAAGLVAYGRRWSPEAYKYWGQGTQVTVSS
Response: 101

Prompt: Complete the entry with 钙流 IC50 (细胞外钙离子浓度1.2mM) for 纳米抗体2D4 (VHH, Camel VHH expressed in E. coli and purified on a nickel column; It was detected through an HA tag; also called 抗体株2D4) VHH: LQESGGGSVQIGGSLRLSCAASGYTYMRYSSFCMGWFRQAPGKEREGVAAIDSGRRTTHADSVKGRFTISRDNAKNTLYLQMNSLKPEDTAMYYCAARDVGYCGGYWARRDFAYWGQGTQVTVSS
Response: 65

Prompt: Complete the entry with 钙流 IC50 (细胞外钙离子浓度1.2mM) for 纳米抗体NB32 (VHH, Camel VHH expressed in E. coli and purified on a nickel column; It was detected through an HA tag; also called 抗体株NB32) VHH: QVQLQESGGGSVQAGGSLTLSCAASEYKHRYSTYSMGWFRQAPGKEREGVAAIYSDGGTRYADSVKGRFTISKDNAKSTLYLLMNSLKPEDTAMYYCAASQTFRGWYPYEYNYWGQGTQVTVSS
Response: 301

Prompt: Complete the entry with 钙流 IC50 (细胞外钙离子浓度1.2mM) for 纳米抗体2D11 (VHH, Camel VHH expressed in E. coli and purified on a nickel column; It was detected through an HA tag; also called 抗体株2D11) VHH: QVQLQESGGGSVQAGGSLRLSCAASGFPISTYDMGWFRQAPGKEREGVVGITDSFSIKYEDSVKGRFTISRDNAKNALYLQMNSLKPEDTGMYYCAAGDARWSLLLRAEQYNYWGQGTQVTVSS
Response: 41
